Below is a list of entries, each paired with its recorded melting point value.

{"molecule": "CC(=O)n1ncn(N=Cc2cccnc2)c1=O", "quantityKind": "melting point", "val": "164 to 166 °C"}
{"molecule": "Nc1ncnc2c1c(-c1ccc(Oc3ccccc3)cc1)cn2C1CCOC1 (stereo unspecified)", "quantityKind": "melting point", "val": "165 to 166 °C"}
{"molecule": "CCNc1nc(Cl)c(Br)c(NC2CC2)n1", "quantityKind": "melting point", "val": "100 to 101 °C"}
{"molecule": "OCCCNC(Cn1ccnc1)c1ccc(Cl)cc1Cl (stereo unspecified)", "quantityKind": "melting point", "val": "77 to 79 °C"}
{"molecule": "CC(C)NC(=O)c1nc(-c2cccc(F)c2)c(-c2ccc(=O)n(C(C)C)n2)s1", "quantityKind": "melting point", "val": "104 to 106 °C"}

Requested field: melting point. Item: O=C(O)c1ccc(OC(F)(F)F)cc1Cl
90.6 to 91.2 °C

* * *

quantityKind: melting point

Some solved cases for reference:
{"compound": "CCC1(CCCCCBr)C(=O)Nc2cc(F)ccc21 (stereo not given)", "melting point": "95 to 96 °C"}
{"compound": "CCOC(=O)c1c(-c2ccccc2)c(-c2ccc(F)cc2)c(C=O)n1C(C)C", "melting point": "88 to 90 °C"}
{"compound": "Nc1nc(Nc2ccc(S(N)(=O)=O)cc2)sc1C(=O)c1c(F)cccc1F", "melting point": "258 to 260 °C"}
{"compound": "O=C(O)Cc1cccc2c1NC(=O)C2", "melting point": "234 to 236 °C"}
{"compound": "COc1cc2c(cc1OC)CCN(CCCN(C)C1CCc3cc(OC)c(OC)cc3C1)C=C2 (stereo not given)", "melting point": "115 to 116 °C"}

Given the entry Cc1c(=O)[nH]c(=O)n2cc(C(=O)O)sc12 , report its measured melting point.
> 205 °C

Cool, now Cc1cc(CNC(=O)c2nc3n(c(=O)c2OCc2ccccc2)CCN3c2ccccc2)ccc1F
147 °C

And then COCSCCNC(=C[N+](=O)[O-])NCC(O)c1ccccc1 (stereo not given) , what is it?
107 to 110 °C

CC(=O)C=C(c1ccc(C#N)cc1)n1ccnc1 , same question.
123 to 126 °C

Here is the next compound: COCc1nc2c(OC)ccc(C(O)(Cc3ccncc3)Cc3ccncc3)c2[nH]1
210 °C

* * *

Quick reference for melting point among some compounds

{"compound": "Cc1ncsc1C(=O)Nc1ccc(-n2nc(C(F)(F)F)cc2C2CC2)cc1", "melting point": "137 to 141 °C"}
{"compound": "CC(=O)c1ccc(-c2ccccc2)cc1O", "melting point": "90 to 92 °C"}
{"compound": "CC(C)(C)OC(=O)N1CCC(C#N)(c2ccc(Cl)c(Cl)c2)CC1", "melting point": "142 to 145 °C"}

Which melting point value belongs to O[C@@H]1Cc2ccccc2C[C@H]1N1CCN(c2ccccc2)CC1 (relative stereo) ?
152 to 154 °C

Proceed to C#Cc1ccc2c(=O)c(C(=O)OCC)cn(-c3ccc(F)cc3)c2c1
227 to 229 °C

* * *

Examples of compounds with documented melting point follow.

Below are worked cases with known answers.
{"compound": "Cc1oc(-c2ccccc2)nc1CCC(=O)c1ccc(CCC=O)cc1", "val": "92 to 93 °C"}
{"compound": "CCOc1nn(-c2ccc(C(F)(F)F)cn2)cc1CCCOc1ccc(CCC(=O)O)cc1OC(C)C", "val": "93 to 94 °C"}
{"compound": "CN(C)c1cc2nc(C(C)(C)C)sc2cc1N", "val": "169 °C"}
{"compound": "CS(=O)(=O)Nc1ccc([N+](=O)[O-])nc1", "val": "187 to 189 °C"}
{"compound": "O=C(c1cccnc1)N1CC2CSc3ccccc3C2=N1 (stereo not given)", "val": "173 to 175 °C"}

Consider the compound COc1ccc(-c2nc(C)c(C(N)=O)s2)cc1 and give its measured melting point.
180 °C

Another compound to check: COc1ccc2nc(S(=O)Cc3nccc(OCC(F)(F)F)c3OC)[nH]c2c1 (stereo not given)
36 to 46 °C

Query O=C(CCc1ccncc1)Nc1cccc(-c2ccnc3c(C(=O)c4cccs4)cnn23)c1 next
176 to 181 °C

Also need COc1ccnc(Cl)c1C#N , thanks.
168 to 171 °C

Another compound to look at: Cc1nnc2n1-c1ccc(Br)cc1C(c1ccccc1F)=NC2NC(=O)OCc1ccccc1 (stereo not given)
160 to 170 °C
